- Test system: 2Sp-muMax20 (muMax20 with two 2,6-bis(methyl)pyridine Cys staples)
- experimental details: PBM 8-mer E-score (E-score (rank enrichment, -0.5 to 0.5)); higher = stronger preferential binding
Whole data set: some 33,000 sequences, median “E-score (rank enrichment, -0.5 to 0.5)” near -0.0043, cut for the highest 2% near 0.24. What follows is part of a selection rich in the highest values, with near analogues and random picks from the rest.
# binarize PBM 8-mer E-score: threshold 0.1 inclusive, high side Condition met, low side Condition not met

These recorded examples may help you get a feel for the data.
# sequence record, target or system, group
data = [
    ("TACGTAAA", "2Sp-muMax20 (muMax20 with two 2,6-bis(methyl)pyridine Cys staples)", "Condition met"),
    ("CCGGCAGA", "2Sp-muMax20 (muMax20 with two 2,6-bis(methyl)pyridine Cys staples)", "Condition not met"),
    ("TCCGGCAA", "2Sp-muMax20 (muMax20 with two 2,6-bis(methyl)pyridine Cys staples)", "Condition not met"),
    ("AAGACCCA", "2Sp-muMax20 (muMax20 with two 2,6-bis(methyl)pyridine Cys staples)", "Condition not met"),
    ("ACGGGGCG", "2Sp-muMax20 (muMax20 with two 2,6-bis(methyl)pyridine Cys staples)", "Condition not met"),
]

In the following, a different sequence is considered.
### Prompt Say whether `TCGAGAAA` shows PBM 8-mer E-score of 0.1 or more.
### Response Condition not met
